# pKi annotations
TARGET_DESC: PfENT1 (Plasmodium falciparum)
TEST: Uptake competition vs [3H]adenosine in PfENT1-expressing Xenopus oocytes
Type: cell-based
pKi: −log10 of the molar value.
PROPERTY_LABEL: pKi

> print(dat)
                              sample.smiles  number
1  Nc1ncnc2c1ccn2[C@@H]1O[C@H](CO)[C@@H](O)[C@H]1O    3.23
2                     O=c1[nH]cnc2cc[nH]c12    3.03
3  Nc1ncnc2c1c(I)cn2[C@@H]1O[C@H](CO)[C@@H](O)[C@H]1O    4.18
4  NC[C@H]1O[C@@H](n2cc(I)c3c(Cl)ncnc32)[C@H](O)[C@@H]1O    2.92

----------
TARGET_DESC: PfENT1 (Plasmodium falciparum, UniProt Q8IDM6)
Sequence (Q8IDM6 whole entry): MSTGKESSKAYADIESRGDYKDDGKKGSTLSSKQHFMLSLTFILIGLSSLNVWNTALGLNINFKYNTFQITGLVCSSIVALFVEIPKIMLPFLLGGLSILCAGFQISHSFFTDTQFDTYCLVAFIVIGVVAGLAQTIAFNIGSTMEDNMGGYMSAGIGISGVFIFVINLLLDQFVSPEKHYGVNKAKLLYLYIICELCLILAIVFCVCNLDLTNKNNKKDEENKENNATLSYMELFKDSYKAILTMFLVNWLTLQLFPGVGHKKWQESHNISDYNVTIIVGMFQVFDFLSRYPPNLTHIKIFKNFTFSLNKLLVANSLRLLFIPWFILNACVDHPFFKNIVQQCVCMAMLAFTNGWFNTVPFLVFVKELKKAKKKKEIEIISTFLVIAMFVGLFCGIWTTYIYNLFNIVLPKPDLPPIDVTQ
TEST: Uptake competition vs [3H]hypoxanthine in PfENT1-expressing Xenopus oocytes
Type: cell-based
SETTINGS: Ki, Competition vs. [3H]hypoxanthine, 100 nM [3H]hypoxanthine, 10 min uptake, one site fit, Cheng-Prusoff, mean ± SEM
pKi: −log10 of the molar value.
Mark -1 for pKi values under 3, and 1 for everything at or above.

> print(dat)
                              sample.smiles  class.label
1                     O=c1[nH]cnc2cc[nH]c12            1
2  NC[C@H]1O[C@@H](n2cc(I)c3c(Cl)ncnc32)[C@H](O)[C@@H]1O           -1
3                     O=c1[nH]cnc2nc[nH]c12            1
4  Nc1ncnc2c1c(I)cn2[C@@H]1O[C@H](CO)[C@@H](O)[C@H]1O            1
5  Nc1ncnc2c1ccn2[C@@H]1O[C@H](CO)[C@@H](O)[C@H]1O            1

----------
TARGET_DESC: PfENT1 (Plasmodium falciparum, UniProt Q8IDM6)
TEST: Uptake competition vs [3H]hypoxanthine in PfENT1-expressing Xenopus oocytes
Type: cell-based
SETTINGS: read-out: Ki, Competition vs. [3H]hypoxanthine; 100 nM [3H]hypoxanthine, 10 min uptake, one site fit, Cheng-Prusoff, mean ± SEM
PROPERTY_LABEL: Ki

> print(dat)
                              sample.smiles  property.label   result
1  CSC[C@H]1O[C@@H](n2ccc3c(N)ncnc32)[C@H](O)[C@@H]1O              Ki  1100 µM
